- Tested on: pseudotype expressing the envelope glycoprotein of murine leukemia virus (MLV)
- ASSAY_INFO: MLV pseudotype infectivity, luciferase activity (peptide/cytotoxicity control)
- Type: cell-based
- STATED_CONDITIONS: peptide about 25 μM (asterisked peptides 10 μM or less); 72 h at 37° C.; vehicle 439,158
Reported MLV number of luciferase units (lumens) produced after infection values for a set of sequences

Examples from the recorded data:
{"SEQUENCE_CODE": "SIVYEAADAILHTPGCVP [Peptide 56]", "RESULT": "433,459 luciferase units (lumens)"}
{"SEQUENCE_CODE": "RHIDLLVGSATLCSALYV [Peptide 63]", "RESULT": "438,440 luciferase units (lumens)"}
{"SEQUENCE_CODE": "GQLFTFSPRHHWTTQDCN [Peptide 67]", "RESULT": "357,577 luciferase units (lumens)"}
{"SEQUENCE_CODE": "YPGHITGHRMANMMMNW [Peptide 70]", "RESULT": "553,120 luciferase units (lumens)"}
{"SEQUENCE_CODE": "CGSVFLVGQLFTFSPRHH [Peptide 66]", "RESULT": "189,683 luciferase units (lumens)"}

Measured MLV number of luciferase units (lumens) produced after infection (pseudotype expressing the envelope glycoprotein of murine leukemia virus (MLV)), entry GSATLCSALYVGDLCGSV [Peptide 64] : 316,948 luciferase units (lumens)

Measured MLV number of luciferase units (lumens) produced after infection (pseudotype expressing the envelope glycoprotein of murine leukemia virus (MLV)), entry IMDMIAGAHWGVLAGIKY [Peptide 75] : 420,026 luciferase units (lumens)

Measured MLV number of luciferase units (lumens) produced after infection (pseudotype expressing the envelope glycoprotein of murine leukemia virus (MLV)), entry WVAVTPTVATRDGKLPTT [Peptide 60] : 340,384 luciferase units (lumens)

Measured MLV number of luciferase units (lumens) produced after infection (pseudotype expressing the envelope glycoprotein of murine leukemia virus (MLV)), entry ALYVGDLCGSVFLVGQLF [Peptide 65] : 491,789 luciferase units (lumens)

Measured MLV number of luciferase units (lumens) produced after infection (pseudotype expressing the envelope glycoprotein of murine leukemia virus (MLV)), entry HRMANMMMNWSPTAALV [Peptide 71] : 533,765 luciferase units (lumens)

Measured MLV number of luciferase units (lumens) produced after infection (pseudotype expressing the envelope glycoprotein of murine leukemia virus (MLV)), entry DAILHTPGCVPCVREGNA [Peptide 57] : 331,852 luciferase units (lumens)

Measured MLV number of luciferase units (lumens) produced after infection (pseudotype expressing the envelope glycoprotein of murine leukemia virus (MLV)), entry LLRIPQAIMDMIAGAHWG [Peptide 74] : 467,876 luciferase units (lumens)

Measured MLV number of luciferase units (lumens) produced after infection (pseudotype expressing the envelope glycoprotein of murine leukemia virus (MLV)), entry SSGLYHVTNDCPNSSIVY [Peptide 54] : 280,113 luciferase units (lumens)

The values you see were collected from patent US8153360B2.
